biological target: P-selectin; assay: Inhibitory test on the binding of P-selectin to sialyl Le^X (selectin-IgG chimera); details: inhibition of P-selectin IgG chimera binding to sialyl Le^X-pentaceramide
For each of the molecules below, state its pIC50.
Field pIC50 (float): negative decimal logarithm of the concentration in molar.

Measured pIC50 (P-selectin), entry CCCCCCCCCCCCCCC(CCCCCCCCCCCCCC)C(=O)N[C@@H](CS[C@H]1O[C@@H](C)[C@@H](O)[C@@H](O)[C@@H]1O)C(=O)N[C@H](CCC(=O)O)C(=O)NC : 6.00

Measured pIC50 (P-selectin), entry CCCCCCCCCCCCCCC(CCCCCCCCCCCCCC)C(=O)N[C@@H](CO[C@@H]1O[C@@H](C)[C@@H](O)[C@@H](O)[C@@H]1O)C(=O)N[C@@H](CCC(=O)O)C(=O)NC : 5.72

Measured pIC50 (P-selectin), entry CCCCCCCCCCCCCCC(CCCCCCCCCCCCCC)C(=O)N[C@@H](CO[C@@H]1O[C@@H](C)[C@@H](O)[C@@H](O)[C@@H]1O)C(=O)N[C@H](CCC(=O)O)C(=O)NC : 6.30

----------
For each of the compounds below, state its pIC50.
Molecular target: L-selectin
Test: Inhibitory test on the binding of L-selectin to sialyl Le^X (selectin-IgG chimera)
Details: inhibition of L-selectin IgG chimera binding to sialyl Le^X-pentaceramide
Procedure: The experiment was carried out according to the method using selectin-IgG chimera, which was reported by Foxall, C. et al. (J. Cell Biol., 117, 895-902 (1992)). Sialyl Le^X -pentaceramide was dissolved in 50% methanol in distilled water, and the solution was put into a 96-well plate in an amount of 100 pmol/well. The plate was allowed to stand at room temperature overnight, and the solvent therein was evaporated. […] IC50 was evaluated by probit method from the binding rate. […]
Field pIC50 (float): negative decimal logarithm of the concentration in molar.

Measured pIC50 (L-selectin), entry CCCCCCCCCCCCCCC(CCCCCCCCCCCCCC)C(=O)N[C@@H](CO[C@@H]1O[C@@H](C)[C@@H](O)[C@@H](O)[C@@H]1O)C(=O)N[C@H](CCC(=O)O)C(=O)NC : 5.22

Measured pIC50 (L-selectin), entry CCCCCCCCCCCCCCC(CCCCCCCCCCCCCC)C(=O)N[C@H](CS[C@@H]1O[C@@H](C)[C@@H](O)[C@@H](O)[C@@H]1O)C(=O)N[C@@H](CCC(=O)O)C(=O)NC : 7.00

Measured pIC50 (L-selectin), entry CCCCCCCCCCCCCCC(CCCCCCCCCCCCCC)C(=O)N[C@@H](CO[C@@H]1O[C@H]([C@H](C)O)[C@@H](O)[C@@H]1O)C(=O)N[C@@H](CCC(=O)O)C(=O)NC : 5.66

Measured pIC50 (L-selectin), entry CCCCCCCCCCCCCCC(CCCCCCCCCCCCCC)C(=O)N[C@@H](CO[C@@H]1O[C@H]([C@H](C)O)[C@@H](O)[C@@H]1O)C(=O)NCCCC(=O)O : 5.74

Measured pIC50 (L-selectin), entry CCCCCCCCCCCCCCC(CCCCCCCCCCCCCC)C(=O)N[C@@H](CO[C@@H]1O[C@@H](C)[C@@H](O)[C@@H](O)[C@@H]1O)C(=O)N[C@@H](CCC(=O)O)C(=O)NC : 4.41

----------
Biological target: L-selectin
Experiment: Inhibitory test on the binding of L-selectin to sialyl Le^X (selectin-IgG chimera)
Details: inhibition of L-selectin IgG chimera binding to sialyl Le^X-pentaceramide
Experimental: The experiment was carried out according to the method using selectin-IgG chimera, which was reported by Foxall, C. et al. (J. Cell Biol., 117, 895-902 (1992)). Sialyl Le^X -pentaceramide was dissolved in 50% methanol in distilled water, and the solution was put into a 96-well plate in an amount of 100 pmol/well. The plate was allowed to stand at room temperature overnight, and the solvent therein was evaporated. […] IC50 was evaluated by probit method from the binding rate. […]
Decision: IC50 beneath 800 nM gives Criterion met; IC50 meeting or exceeding 800 nM gives Criterion not met.

Does the reported IC50 of the following compound sit strictly below 800 nM? CCCCCCCCCCCCCCC(CCCCCCCCCCCCCC)C(=O)N[C@@H](CO[C@@H]1O[C@H]([C@H](C)O)[C@@H](O)[C@@H]1O)C(=O)NCCCCC(=O)O
Criterion not met

Does the reported IC50 of the following compound sit strictly below 800 nM? CCCCCCCCCCCCCCC(CCCCCCCCCCCCCC)C(=O)N[C@H](CO[C@@H]1O[C@@H](C)[C@@H](O)[C@@H](O)[C@@H]1O)C(=O)N[C@@H](CCC(=O)O)C(=O)NC
Criterion not met

Does the reported IC50 of the following compound sit strictly below 800 nM? CCCCCCCCCCCCCCC(CCCCCCCCCCCCCC)C(=O)N[C@H](CO[C@@H]1O[C@H]([C@H](C)O)[C@@H](O)[C@@H]1O)C(=O)N[C@H](CCC(=O)O)C(=O)NC
Criterion met

Does the reported IC50 of the following compound sit strictly below 800 nM? CCCCCCCCCCCCCCC(CCCCCCCCCCCCCC)C(=O)N[C@@H](CO[C@@H]1O[C@H]([C@H](C)O)[C@@H](O)[C@@H]1O)C(=O)N[C@H](CCC(=O)O)C(=O)NC
Criterion not met

Does the reported IC50 of the following compound sit strictly below 800 nM? CCCCCCCCCCCCCCC(CCCCCCCCCCCCCC)C(=O)N[C@H](CO[C@@H]1O[C@@H](C)[C@@H](O)[C@@H](O)[C@@H]1O)C(=O)N[C@H](CCC(=O)O)C(=O)NC
Criterion not met

Does the reported IC50 of the following compound sit strictly below 800 nM? CCCCCCCCCCCCCCC(CCCCCCCCCCCCCC)C(=O)N[C@H](CO[C@@H]1O[C@H]([C@H](C)O)[C@@H](O)[C@@H]1O)C(=O)N[C@@H](CCC(=O)O)C(=O)NC
Criterion met

Does the reported IC50 of the following compound sit strictly below 800 nM? CC(=O)N[C@H]1[C@H]([C@H](O)[C@H](O)CO)O[C@@](O[C@H]2[C@@H](O)[C@@H](CO)O[C@@H](O[C@@H]([C@H](O[C@@H]3O[C@@H](C)[C@@H](O)[C@@H](O)[C@@H]3O)[C@H](C=O)NC(C)=O)[C@H](O)CO)[C@@H]2O)(C(=O)O)C[C@@H]1O [compound X, Sialyl Le^X, reference compound]
Criterion not met

Does the reported IC50 of the following compound sit strictly below 800 nM? CCCCCCCCCCCCCCC(CCCCCCCCCCCCCC)C(=O)N[C@@H](CO[C@@H]1O[C@H]([C@H](C)O)[C@@H](O)[C@@H]1O)C(=O)N[C@H](CCC(=O)O)C(=O)Nc1ccccc1
Criterion not met

Does the reported IC50 of the following compound sit strictly below 800 nM? CCCCCCCCCCCCCCC(CCCCCCCCCCCCCC)C(=O)N[C@@H](CS[C@H]1O[C@@H](C)[C@@H](O)[C@@H](O)[C@@H]1O)C(=O)N[C@H](CCC(=O)O)C(=O)NC
Criterion not met

Does the reported IC50 of the following compound sit strictly below 800 nM? CCCCCCCCCCCCCCC(CCCCCCCCCCCCCC)C(=O)N[C@H](CO[C@H]1O[C@@H](C)[C@@H](O)[C@@H](O)[C@@H]1O)C(=O)N[C@H](CCC(=O)O)C(=O)NC
Criterion met

Does the reported IC50 of the following compound sit strictly below 800 nM? CCCCCCCCCCCCCCC(CCCCCCCCCCCCCC)C(=O)N[C@@H](CS[C@@H]1O[C@@H](C)[C@@H](O)[C@@H](O)[C@@H]1O)C(=O)N[C@@H](CCC(=O)O)C(=O)NC
Criterion met

Does the reported IC50 of the following compound sit strictly below 800 nM? CCCCCCCCCCCCCCC(CCCCCCCCCCCCCC)C(=O)N[C@H](CS[C@@H]1O[C@@H](C)[C@@H](O)[C@@H](O)[C@@H]1O)C(=O)N[C@H](CCC(=O)O)C(=O)NC
Criterion met

Does the reported IC50 of the following compound sit strictly below 800 nM? CCCCCCCCCCCCCCC(CCCCCCCCCCCCCC)C(=O)N[C@H](CO[C@H]1O[C@@H](C)[C@@H](O)[C@@H](O)[C@@H]1O)C(=O)N[C@@H](CCC(=O)O)C(=O)NC
Criterion not met

Does the reported IC50 of the following compound sit strictly below 800 nM? CCCCCCCCCCCCCCC(CCCCCCCCCCCCCC)C(=O)N[C@@H](CS[C@@H]1O[C@@H](C)[C@@H](O)[C@@H](O)[C@@H]1O)C(=O)N[C@H](CCC(=O)O)C(=O)NC
Criterion met

----------
Molecular target: P-selectin
Assay: Inhibitory test on the binding of P-selectin to sialyl Le^X (selectin-IgG chimera)
Conditions: inhibition of P-selectin IgG chimera binding to sialyl Le^X-pentaceramide; sodium salt
Method: Inhibitory test on the binding of P-selectin to sialyl Le^X : The experiment was carried out according to the method using selectin-IgG chimera, which was reported by Foxall, C. et al. (J. Cell Biol., 117, 895-902 (1992)). Sialyl Le^X -pentaceramide was dissolved in 50% methanol in distilled water, and the solution was put into a 96-well plate in an amount of 100 pmol/well. […] IC50 was evaluated by probit method from the binding rate.
Counter-ions that a name gives are not always drawn.
PROPERTY NAME: IC50 (nM)
Please state the figure in nM; there is no need to write the unit.

IC50 for CCCCCCCCCCCCCCC(CCCCCCCCCCCCCC)C(=O)N[C@@H](CO[C@@H]1O[C@H]([C@H](C)O)[C@@H](O)[C@@H]1O)C(=O)N[C@H](CCC(=O)O)C(=O)NC [compound h, sodium salt] is 1200
